B1: Twister Ribozyme (parent)
chain: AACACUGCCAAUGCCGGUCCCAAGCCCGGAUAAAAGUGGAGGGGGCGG

variants of: B1; assay: self-cleavage, relative activity (ratio to wild type); higher = more cleavage; co-transcriptional
value-type: self-cleavage
Output spec: single numeric token, no unit.

AACACUGCCAAUGCCGGUCCCAAGCGCGGAUAAAAGUGGAGGGGGAGG [C26G C46A] : 0.153
AACAGUGCAAAUGCCGGUCCCAAGCCCGGAUAAAAGUGGAGGGGGCGG [C5G C9A] : 0.167
AACACUGCAAAUGCCGGUCCCAAGCCCGGAUAAAAGUGGAGGGGGCGC [C9A G48C] : 0.541
AACACUGCCAGUGCCGGUCCCAAGCCCGGAUAAAAGAGGAGGGGGCGG [A11G U37A] : 0.587
AACACAGCCAAUGCCGGUCCCAAGCCCGGAUAAAAGUGGAAGGGGCGG [U6A G41A] : 0.203

IN: Would you mind telling me what self-cleavage value was observed for AACACUGCCAAUGGCGGUCCCAAGCCCGGAUAAAAGUGGAGGGGGUGG [C14G C46U] ?
OUT: 0.175

IN: Would you mind telling me what self-cleavage value was observed for AACACUGGCAAUGCCGGUCCCAAGCCCGGAUAAAAGUGGAGGGGGCAG [C8G G47A] ?
OUT: 0.208

IN: Would you mind telling me what self-cleavage value was observed for AACACUGCCAAUGCCGGUCCCAAGCCCGGCUAAAAGUGAAGGGGGCGG [A30C G39A] ?
OUT: 0.189

IN: Would you mind telling me what self-cleavage value was observed for AACACUGCCAAUGCCGGUCCCAAGCCCGGAUGAAAGUGGAGGGGCCGG [A32G G45C] ?
OUT: 0.559

IN: Would you mind telling me what self-cleavage value was observed for GACACUGCCAAUGCCGGUCCCAAGCCCGGAUAAAAGUGCAGGGGGCGG [A1G G39C] ?
OUT: 0.122

IN: Would you mind telling me what self-cleavage value was observed for ACCACUGCCAAUGCCGGUCCCAAGCCCGUAUAAAAGUGGAGGGGGCGG [A2C G29U] ?
OUT: 0.0781

IN: Would you mind telling me what self-cleavage value was observed for AACACUGGCAAUGCUGGUCCCAAGCCCGGAUAAAAGUGGAGGGGGCGG [C8G C15U] ?
OUT: 0.534

IN: Would you mind telling me what self-cleavage value was observed for AACACUGCCAAUACCGGUCCCAAGCCCGGAUAAAAGUGGAGAGGGCGG [G13A G42A] ?
OUT: 0.186

IN: Would you mind telling me what self-cleavage value was observed for AACACUGCCAAUGCAGGUCCCAACCCCGGAUAAAAGUGGAGGGGGCGG [C15A G24C] ?
OUT: 0.0841

IN: Would you mind telling me what self-cleavage value was observed for AACACUGGCAAUGCCGGUCCCAAGCCCGUAUAAAAGUGGAGGGGGCGG [C8G G29U] ?
OUT: 0.156

IN: Would you mind telling me what self-cleavage value was observed for AACACUGUCAAUGCCGGUCCCAAGCUCGGAUAAAAGUGGAGGGGGCGG [C8U C26U] ?
OUT: 0.061

IN: Would you mind telling me what self-cleavage value was observed for AACACUGCCAAUGCCGGUCCCAAGCCUGGAUAAAAGUGGAGGGGGCCG [C27U G47C] ?
OUT: 0.323

IN: Would you mind telling me what self-cleavage value was observed for AACACUGCCAAUGCCGGUCCCAAGCCCGGAUAAAAGUGGAGAGGUCGG [G42A G45U] ?
OUT: 0.153

IN: Would you mind telling me what self-cleavage value was observed for AACACUGCCAAUGCCGGUCCCAAGCCGGGAUAAAAGUGGAGGGGACGG [C27G G45A] ?
OUT: 0.0977

IN: Would you mind telling me what self-cleavage value was observed for AACACUGCCAAUGCCGGUCCCCAGUCCGGAUAAAAGUGGAGGGGGCGG [A22C C25U] ?
OUT: 0.948

IN: Would you mind telling me what self-cleavage value was observed for AACACUGCCAAUGCCGGUCCCAAGCCCGGAUAAAAGGGGUGGGGGCGG [U37G A40U] ?
OUT: 0.128

IN: Would you mind telling me what self-cleavage value was observed for AACACGGACAAUGCCGGUCCCAAGCCCGGAUAAAAGUGGAGGGGGCGG [U6G C8A] ?
OUT: 0.212

IN: Would you mind telling me what self-cleavage value was observed for AACACUGCCAAUGCCGGACCUAAGCCCGGAUAAAAGUGGAGGGGGCGG [U18A C21U] ?
OUT: 0.0595

IN: Would you mind telling me what self-cleavage value was observed for AACCCUGCCAAUGCCGGUCCCAAGCCCCGAUAAAAGUGGAGGGGGCGG [A4C G28C] ?
OUT: 0.0895

IN: Would you mind telling me what self-cleavage value was observed for AACACUGCCAAUGCCGGUCCCAAGCCCGGAUAAACGUGGAGGGGGCGA [A35C G48A] ?
OUT: 0.917

IN: Would you mind telling me what self-cleavage value was observed for AACACUGCCAAUGCCGGUCCCAAGCCCGGAUAAAAGUGGAAGGGGCGG [G41A] ?
OUT: 0.665

IN: Would you mind telling me what self-cleavage value was observed for AACACUGCCAAUGCCGGUCCCAACCCCGGAUAAAAGUGGAGGUGGCGG [G24C G43U] ?
OUT: 0.0968
